// data source = ChEMBL document CHEMBL1132223

Measured IC50 by item
- Measured target: Neutrophil collagenase (Homo sapiens, UniProt P22894)
- Sequence (P22894 whole entry): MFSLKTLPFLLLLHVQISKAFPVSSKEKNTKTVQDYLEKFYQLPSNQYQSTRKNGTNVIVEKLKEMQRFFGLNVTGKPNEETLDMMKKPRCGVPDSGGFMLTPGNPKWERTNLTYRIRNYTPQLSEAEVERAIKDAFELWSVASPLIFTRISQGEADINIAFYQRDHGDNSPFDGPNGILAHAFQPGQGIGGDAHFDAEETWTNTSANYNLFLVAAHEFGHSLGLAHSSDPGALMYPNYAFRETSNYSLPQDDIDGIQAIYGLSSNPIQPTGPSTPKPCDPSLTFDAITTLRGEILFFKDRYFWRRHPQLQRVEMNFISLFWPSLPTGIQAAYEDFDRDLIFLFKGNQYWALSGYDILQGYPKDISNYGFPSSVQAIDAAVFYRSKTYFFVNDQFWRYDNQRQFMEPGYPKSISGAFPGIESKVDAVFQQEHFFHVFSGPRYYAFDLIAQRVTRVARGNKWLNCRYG
- Experimental protocol: Inhibition of human neutrophil collagenase [Matrix Metalloprotease-8, MMP-8]

| Chemical smiles | IC50 (nM) |
| --- | --- |
| COc1ccc(OC(=O)Nc2cccc(S(=O)(=O)N3Cc4ccccc4C[C@@H]3C(=O)NO)c2)cc1 | 200 |
| N#Cc1ccc(Oc2ccc(S(=O)(=O)N3Cc4ccccc4C[C@@H]3C(=O)C(=O)O)cc2)cc1 | 10 |
| COc1ccc(S(=O)(=O)N2Cc3cc(NC(=O)[C@H](CC(=O)OC(C)(C)C)NC(=O)OCc4ccccc4)ccc3C[C@H]2C(=O)NO)cc1 | 10 |
